Assay: Acute toxicity, LD50 of each drug in male mice (DBA)
Type: in vivo
Settings: mouse, in vivo, ip
PARAMETER: LD50
# do not omit the unit; it follows the number

Reported LD50 of CN(C)C(=O)c1ccc(CCC(Cl)CCl)cn1 (centres unmarked) : 188 mg/kg

Consider CN(C)C(=O)c1ccc(CCC(Br)CBr)cn1 (centres unmarked) . Its measured LD50 is 304 mg/kg

----------
Consider the following molecules; for each one, report its ED50.
System: spontaneously hypertensive rats (SHR)
Assay: Antihypertensive action in spontaneously hypertensive rats, systolic blood pressure measured plethysmographically
Type: in vivo, Wistar-derived)
Settings: Rattus norvegicus, ip; antihypertensive action; intraperitoneal; SHR; 30% depression of systolic blood pressure defined as effective; read-out: ED50 (mg/kg) Intraperitoneally
The figure you give is taken to be in mg/kg; do not add the unit.

Field ED50 (entry CN(C)C(=O)c1ccc(CCC(Cl)CCl)cn1 (centres unmarked) [Compound 5] ) reads 5

// CN(C)C(=O)c1ccc(CCC(Br)CBr)cn1 (centres unmarked) [Compound 3] : ED50 value = 3

Value of ED50 reported for the molecule O=C(O)c1ccc(CCC(Br)CBr)cn1 (centres unmarked) [Compound 6, 5-(3,4-dibromobutyl)picolinic acid, reference compound] is 3.2

So, NC(=O)c1ccc(CCC(Cl)CCl)cn1 (centres unmarked) [Compound 4, 5-(3,4-Dichlorobutyl)picolinamide] ? Its ED50 was 2

Lab note: measured ED50 of CC(Br)CCc1ccc(C(N)=O)nc1 (centres unmarked) [Compound 2, 5-(3-Bromobutyl)picolinamide] was 2
